Recorded pIC50 for molecules tested on PIK3CB (Human) (UniProt P42338), drawn from a number of studies.
pIC50: −log10 of the molar value.

[
  {
    "molecule": "CN(CCN1CCOCC1)c1cnc2ccc(-c3ccc4oc(N)nc4c3)cc2n1",
    "measured.on": "PIK3CB (Human) (UniProt P42338)",
    "test.value": "> 5.00"
  },
  {
    "molecule": "CCc1ccccc1-n1c(Cn2nc(-c3cccc(O)c3)c3c(N)ncnc32)cc2cccc(C)c2c1=O",
    "measured.on": "PIK3CB (Human) (UniProt P42338)",
    "test.value": "< 5.00"
  },
  {
    "molecule": "C[C@H](Nc1ccnc2ccnn12)c1cc2cccc(Cl)c2c(C(=O)N2CCOCC2)n1",
    "measured.on": "PIK3CB (Human) (UniProt P42338)",
    "test.value": "> 5.00"
  },
  {
    "molecule": "COc1ncc(-c2ccc3ncc(C(=O)N4CCOCC4)n3c2)cc1NS(=O)(=O)c1cccnc1",
    "measured.on": "PIK3CB (Human) (UniProt P42338)",
    "test.value": "> 7.00"
  },
  {
    "molecule": "Nc1ncc(-c2nc(N3CCOCC3)nc3c2cnn3CC(=O)N2CCCC2)cn1",
    "measured.on": "PIK3CB (Human) (UniProt P42338)",
    "test.value": "5.00 to 7.00"
  }
]

Query: What pIC50 value was documented for this molecule, "Cc1cccc2cc([C@H](C)Nc3ncnc4[nH]cnc34)n(-c3ccc(F)cc3)c(=O)c12" ?
Reply: > 7.00

Query: Input "COC(=O)c1ncsc1-c1cccc2cc([C@H](C)NC(=O)c3c(N)nn4cccnc34)n(-c3ccccc3)c(=O)c12"
Reply: < 5.00

Query: Likewise for "Cc1cccc2cc([C@H](C)Nc3ncnc4[nH]cc(Cl)c34)n(-c3ccccc3)c(=O)c12" ?
Reply: > 7.00

Query: Can you check "COc1cc(-c2cccc3cc([C@H](C)NC(=O)c4c(N)nn5cccnc45)n(-c4ccccc4)c(=O)c23)ccn1" next?
Reply: 5.00 to 6.00

Query: Moving on to "O=C(c1cnc2ccc(-c3cccc(S(=O)(=O)Nc4cc(F)ccc4F)c3)cn12)N1CCOCC1"
Reply: < 5.00

Query: // same read-out, input: "COc1ncc(-c2cccc3cc([C@H](C)Nc4nc(N)ncc4C#N)n(-c4ccccc4)c(=O)c23)s1"
Reply: 5.00 to 6.00

Query: Proceed to "C[C@H](Nc1nc(N)ncc1C#N)c1cc2cccc(-c3cncc(F)c3)c2c(=O)n1-c1ccccc1"
Reply: 5.00 to 6.00

Query: // repeat for "C[C@H](Nc1nc(Cl)nc2scnc12)c1cc2cccc(-c3cnn(C)c3)c2c(=O)n1-c1ccccc1" and report
Reply: 5.00 to 6.00

----------
Multiple publications report IC50 for PIK3CB (Human); what follows is a combined list.

[
  {
    "molecule": "CNC(=O)Nc1ccc(-c2nc(N3CCOCC3)nc3c2cnn3C2CCOCC2)cc1",
    "IC50": "> 100 nM"
  }
]

Query: For "C[C@H](Nc1nc(N)ncc1C#N)c1cc2cccc(-c3ccc(Cl)cc3)c2c(=O)n1-c1ccccc1" , what is its reported IC50?
Reply: 1000 to 10000 nM

Query: And "CCn1c(CN(C)Cc2ccc(C(=O)NO)cc2)nc2c(N3CCOCC3)nc(-c3cnc(N)nc3)nc21" ?
Reply: 10 to 100 nM

Query: Try this molecule too: "Nc1ncc(-c2nc(N3CCOCC3)nc3c2cnn3CC(=O)N2CCOCC2)cn1"
Reply: 100 to 10000 nM

Query: Ok, now "Nc1nc2cc(-c3ccc4ncc(C(=O)N5CC(N6CC[C@@H](O)C6)C5)n4c3)ccc2o1"
Reply: < 10000 nM

Query: # repeat for "Cc1cc2c(=O)n(-c3ccccc3C)c(Cn3nc(Br)c4c(N)ncnc43)nc2s1"
Reply: > 10000 nM

----------
pIC50: −log10 of the molar value.
Below, pIC50 values reported for UniProt P42338 across several publications.

[
  {
    "compound": "COc1cc(F)cc(-c2nn(Cc3cc4cccc(C)c4c(=O)n3-c3ccccc3C)c3ncnc(N)c23)c1",
    "pIC50": "< 5.00"
  },
  {
    "compound": "CC1CN(C(=O)c2cnc3ccc(-c4ccc5oc(N)nc5c4)cn23)CC(C)N1 (centres unmarked)",
    "pIC50": "< 5.00"
  },
  {
    "compound": "C[C@H](Nc1nc(N)ncc1C#N)c1cc2cccc(-c3cncc(C(F)(F)F)c3)c2c(=O)n1-c1ccccc1",
    "pIC50": "5.00 to 6.00"
  }
]

Query: // lookup pIC50 for "Cc1nnc(-c2cc(-c3ccnc(C#N)c3)cc3c2nc(C)n3-c2ccnc3c(F)ccc(F)c23)[nH]1"
Reply: 7.10

Query: Check "C[C@H](Nc1ncnc2[nH]cnc12)c1cc2cccc(Cl)c2c(C(=O)N2CCN(C)CC2)n1" too.
Reply: < 5.00

----------
Reported IC50 against PIK3CB (Human), gathered from multiple publications, appears below.

Solved cases below.
[
  {
    "compound": "CCc1ccccc1-n1c(Cn2nc(-c3cn[nH]c3)c3c(N)ncnc32)cc2cccc(C)c2c1=O",
    "measured.on": "PIK3CB (Human)",
    "IC50": "< 10 µM"
  },
  {
    "compound": "C[C@H](Nc1nc(N)ncc1C#N)c1cc2cccc(-c3cccc(N(C)S(C)(=O)=O)c3)c2c(=O)n1-c1ccccc1",
    "measured.on": "PIK3CB (Human)",
    "IC50": "1 to 10 µM"
  },
  {
    "compound": "Nc1nc2ccc(-c3ccc4ncc(N5CCOCC5)nc4c3)cc2o1",
    "measured.on": "PIK3CB (Human)",
    "IC50": "< 1 µM"
  }
]

Query: Could you tell me which IC50 is on file for CCC1C(c2cccnc2)OC(=O)N1c1cc(-c2cnc(N)nc2C(F)(F)F)nc(N2CCOCC2)n1 (stereo not shown) ?
Reply: 0.067 µM

Query: How about "CC[C@H](NC(=O)c1c(N)nn2cccnc12)c1cc2cccc(Cl)c2c(=O)n1-c1ccccc1" ?
Reply: < 0.1 µM

Query: Entry "CN1CCC(n2cnc3ccc(-c4cnc(Cl)c(NS(=O)(=O)c5ccccc5)c4)cc3c2=O)CC1" please
Reply: < 0.1 µM

Query: How about "C[C@H](Nc1ncnc2[nH]cnc12)c1nc(CCN2CCOCC2)c2c(Cl)cccc2c1F" ?
Reply: > 10 µM

Query: One more compound: "C[C@H](Nc1ncnc2scnc12)c1cc2cccc(-c3ccoc3)c2c(=O)n1-c1ccccc1"
Reply: 1 to 10 µM

Query: Item: "COc1cccc(-c2cccc3cc([C@H](C)Nc4ncnc5scnc45)n(-c4ccccc4)c(=O)c23)c1"
Reply: 1 to 10 µM

Query: Input "Nc1nc2cc(-c3ccc4ncc(-c5ccccc5)nc4c3)ccc2o1"
Reply: > 10 µM

----------
pIC50: −log10 of the molar value.
Collected from the literature: pIC50 of various compounds toward PIK3CB (Human).

[
  {
    "chemical.structure": "C[C@H](Nc1ccc2c(c1F)OCCn1cc(N3C(=O)SC[C@H]3C(F)F)nc1-2)C(N)=O",
    "test.value": 6.33
  },
  {
    "chemical.structure": "Cc1cccc2cc(Cn3nc(I)c4c(N)ncnc43)n(C3CC3)c(=O)c12",
    "test.value": "> 5.00"
  },
  {
    "chemical.structure": "Nc1nc2cc(-c3ccc4ncc(N[C@H]5CC[C@H](O)CC5)nc4c3)ccc2o1",
    "test.value": "> 5.00"
  },
  {
    "chemical.structure": "Cc1cc(-n2c(C)nc3c(C(N)=O)cc(-c4ccncc4)cc32)c2ccccc2n1",
    "test.value": 5.80
  },
  {
    "chemical.structure": "CNC(=O)Nc1ccc(-c2nc(N3CCOC[C@@H]3C)nc3c2cnn3CC(C)(C)O)cc1",
    "test.value": "< 7.00"
  },
  {
    "chemical.structure": "CCc1ccccc1-n1c(Cn2nc(-c3cc(O)cc(F)c3)c3c(N)ncnc32)cc2cccc(C)c2c1=O",
    "test.value": "> 6.00"
  },
  {
    "chemical.structure": "Nc1nc2cc(-c3ccc4ncc(N5CC6CCC(C5)O6)cc4n3)ccc2o1",
    "test.value": "< 5.00"
  },
  {
    "chemical.structure": "C[C@H](Nc1ncnc2scnc12)c1cc2cccc(-c3cnc4c(c3)CCCO4)c2c(=O)n1-c1ccccc1",
    "test.value": "5.00 to 6.00"
  },
  {
    "chemical.structure": "Cc1nc2c(-c3nnc[nH]3)cc(-c3ccncc3)cc2n1-c1ccnc2c(F)ccc(F)c12",
    "test.value": 8.22
  },
  {
    "chemical.structure": "Cc1nc(-c2nc([C@H](C)Nc3ncnc4[nH]cnc34)cc3cccc(Cl)c23)no1",
    "test.value": "> 5.00"
  }
]

// below: pIC50 requested for another compound
Query: I'd like to know its pIC50. The compound in question is "Cc1c(-c2ccc3oc(N)nc3c2)ccc2ncc(N3CCN[C@@H](C)C3)nc12"
Reply: > 7.00
